measured.on: Transient receptor potential cation channel subfamily M member 7 (Mus musculus) (UniProt Q923J1)
Sequence (Q923J1 whole entry): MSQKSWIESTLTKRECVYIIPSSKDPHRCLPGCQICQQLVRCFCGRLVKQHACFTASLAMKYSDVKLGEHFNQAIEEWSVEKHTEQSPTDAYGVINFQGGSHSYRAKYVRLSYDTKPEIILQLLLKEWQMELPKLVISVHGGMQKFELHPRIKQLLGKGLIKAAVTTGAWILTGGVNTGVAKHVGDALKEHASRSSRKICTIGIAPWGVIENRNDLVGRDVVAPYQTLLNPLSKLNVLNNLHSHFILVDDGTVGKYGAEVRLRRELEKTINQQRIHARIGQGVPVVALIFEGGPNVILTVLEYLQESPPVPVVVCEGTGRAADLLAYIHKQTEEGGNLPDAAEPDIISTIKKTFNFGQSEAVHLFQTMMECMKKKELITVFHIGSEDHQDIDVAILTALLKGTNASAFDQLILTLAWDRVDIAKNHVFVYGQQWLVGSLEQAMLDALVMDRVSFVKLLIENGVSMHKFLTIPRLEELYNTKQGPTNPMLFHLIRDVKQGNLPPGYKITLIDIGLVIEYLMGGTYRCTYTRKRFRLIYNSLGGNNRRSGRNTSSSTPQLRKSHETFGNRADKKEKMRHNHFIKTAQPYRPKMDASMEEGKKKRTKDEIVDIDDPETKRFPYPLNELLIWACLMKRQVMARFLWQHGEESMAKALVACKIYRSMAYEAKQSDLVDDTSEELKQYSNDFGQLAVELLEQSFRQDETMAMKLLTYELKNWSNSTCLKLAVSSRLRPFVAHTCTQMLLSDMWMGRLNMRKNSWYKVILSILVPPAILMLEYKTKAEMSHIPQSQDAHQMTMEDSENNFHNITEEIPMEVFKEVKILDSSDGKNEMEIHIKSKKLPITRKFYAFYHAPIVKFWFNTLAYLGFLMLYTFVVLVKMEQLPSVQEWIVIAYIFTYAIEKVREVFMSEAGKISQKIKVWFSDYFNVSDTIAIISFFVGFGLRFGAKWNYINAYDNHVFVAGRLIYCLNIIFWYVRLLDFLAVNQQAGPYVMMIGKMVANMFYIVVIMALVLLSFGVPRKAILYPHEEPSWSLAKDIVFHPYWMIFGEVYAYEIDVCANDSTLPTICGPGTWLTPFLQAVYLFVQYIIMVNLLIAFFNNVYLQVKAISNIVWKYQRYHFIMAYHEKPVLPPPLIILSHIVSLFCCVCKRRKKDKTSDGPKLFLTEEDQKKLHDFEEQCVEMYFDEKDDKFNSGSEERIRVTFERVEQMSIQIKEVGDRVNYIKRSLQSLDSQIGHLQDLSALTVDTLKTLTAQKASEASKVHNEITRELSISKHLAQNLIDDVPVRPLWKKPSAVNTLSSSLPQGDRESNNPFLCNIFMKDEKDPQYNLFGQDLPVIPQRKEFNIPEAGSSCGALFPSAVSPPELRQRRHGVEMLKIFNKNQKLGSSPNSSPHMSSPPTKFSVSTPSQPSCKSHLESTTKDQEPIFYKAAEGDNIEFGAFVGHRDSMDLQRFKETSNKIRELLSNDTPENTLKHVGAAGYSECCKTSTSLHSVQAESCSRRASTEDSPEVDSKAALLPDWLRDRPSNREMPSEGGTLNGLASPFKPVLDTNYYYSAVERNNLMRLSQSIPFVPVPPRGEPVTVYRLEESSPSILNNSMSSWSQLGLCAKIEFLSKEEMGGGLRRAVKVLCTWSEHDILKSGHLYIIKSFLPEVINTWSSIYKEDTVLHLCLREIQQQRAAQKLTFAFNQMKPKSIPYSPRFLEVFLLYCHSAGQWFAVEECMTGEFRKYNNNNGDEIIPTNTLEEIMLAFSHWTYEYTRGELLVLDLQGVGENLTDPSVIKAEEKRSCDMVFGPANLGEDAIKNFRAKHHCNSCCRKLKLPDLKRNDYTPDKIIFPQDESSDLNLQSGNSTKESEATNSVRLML
test: Inhibition of Tet-induced Flag-tagged mouse TRPM7 expressed in HEK293 cells assessed as inhibition of channel-mediated cell death in presence of Mg2+ incubated for 24 to 48 hrs by propidium iodide uptake assay
Type: cell-based
Parameters: concentration or dose not given beside the values
measurement.conditions: concentration not given here
Recorded inhibition by entry

Example compounds with recorded inhibition:
COc1cccc(NC(=O)Nc2nnc(C3CC3)s2)c1
< 30%
O=C(O)c1cc(C(F)(F)F)cc(C(F)(F)F)c1
< 30%
CC(=O)Nc1ccc(S(=O)(=O)Nc2ccccc2C#N)cc1
< 30%
O=C(NNC(=S)Nc1ccc2c(c1)CCCO2)c1ccco1
< 30%
CC(C)(C)c1ccc(OCc2ncc(S(=O)(=O)c3ccccc3)c(N)n2)cc1
< 30%
CC[n+]1c(/C=C/c2ccc(OC)cc2)ccc2ccccc21
< 30%
O=S(=O)(c1cc(Cl)sc1Cl)N1CCN(CCc2ccccc2)CC1
< 30%
C=CC/N=C1/NC(=O)C(CC(=O)Nc2ccc(Cl)cc2)S1 (stereo unspecified)
50%
Cc1ccc(S(=O)(=O)Nc2ccc(C)cc2NS(=O)(=O)c2ccc(Cl)cc2)cc1
40%
O=C(/C=C/c1ccc(OC(F)(F)F)cc1)NCc1ccco1
60%

INPUT: Data request, read-out inhibition, for CSc1scc(NC(=O)Nc2cccc(Cl)c2)c1S(=O)(=O)C(C)C
OUTPUT: 60%

----------
measured.on: Transient receptor potential cation channel subfamily M member 7 (Mus musculus) (UniProt Q923J1)
test: Inhibition of Tet-induced Flag-tagged mouse TRPM7 expressed in HEK293 cells assessed as inhibition of channel-mediated cell death in presence of Mg2+ incubated for 24 to 48 hrs by propidium iodide uptake assay
Type: cell-based
Parameters: concentration or dose not given beside the values
measurement.conditions: concentration not given here
property.name: inhibition (%)
Form entry: value (%) — number only.

Example molecules with recorded inhibition:
CC1(C)C=Cc2ccc(OCC(=O)Nc3ccccc3)cc2O1
30
Cc1cc(S(=O)(=O)Cc2noc(-c3c(C)noc3C)n2)c(C)cc1Cl
40
CC(C)(C)c1ccc(-c2nc(CSc3ccc(Cl)cc3)no2)s1
60
Cc1cc(OCc2c(C)c(C)c(C)c(C)c2C)c2c(Cl)ccc(C)c2n1
40

INPUT: Data request, read-out inhibition, for N#Cc1ccc(/C=N/Nc2ncc(-c3ccc4c(c3)OCCCO4)s2)cc1
OUTPUT: 70

----------
measured.on: Transient receptor potential cation channel subfamily M member 7 (Mus musculus) (UniProt Q923J1)
test: Inhibition of Tet-induced Flag-tagged mouse TRPM7 expressed in HEK293 cells assessed as inhibition of channel-mediated cell death in presence of Mg2+ incubated for 24 to 48 hrs by propidium iodide uptake assay
Format: cell-based
Parameters: concentration or dose not given beside the values
measurement.conditions: concentration not given here
property.name: inhibition (%)
Form entry: value (%) — number only.

O=[N+]([O-])c1cccc(-c2ccc(/C=N/NC(=S)Nc3cccc(F)c3)o2)c1
30
Cc1onc(-c2ccccc2)c1-c1cnn(S(=O)(=O)c2ccc(Cl)cc2)c1
30
O=S(=O)(Cc1nc2ccc(Cl)cc2s1)CS(=O)(=O)Nc1nc2ccc(Cl)cc2s1
70
NC(=O)c1sc(-c2ccc(Cl)cc2)cc1NS(=O)(=O)c1ccc(Cl)cc1
50
O=C1NC(=O)/C(=C/c2cccc(C#Cc3ccccc3)c2)S1
60

INPUT: Data request, read-out inhibition, for COc1ccc2c(c1)CC/C(=C\c1ccc(Cl)cc1Cl)C2=O
OUTPUT: 60

----------
test: Toxicity in mouse assessed as maximum tolerated dose
Type: organism-based
measurement.conditions: in vivo
property.name: MTD

INPUT: Data request, read-out MTD, for COc1cc2c(cc1OC)C(c1sc3ccccc3c1Cl)=NCC2
OUTPUT: < 20 mg/kg

----------
measured.on: Transient receptor potential cation channel subfamily M member 7 (Mus musculus)
test: Inhibition of Tet-induced Flag-tagged mouse TRPM7 expressed in HEK293 cells assessed as inhibition of channel-mediated cell death in presence of Mg2+ incubated for 24 to 48 hrs by propidium iodide uptake assay
Type: cell-based
Set-up: concentration or dose not given beside the values
measurement.conditions: concentration not given here
property.name: inhibition (%)
Form entry: value (%) — number only.

Example molecules with recorded inhibition:
CN(C(=O)c1cnc(Oc2ccc(Cl)cc2)cc1C(F)(F)F)c1ccc(Cl)c(Cl)c1
60
O=C1c2ccccc2C(=O)N1Cc1cccc(I)c1
40
N#CCc1nn(-c2ccccc2)c(/N=C/c2cc(Cl)cc(Cl)c2O)c1C#N
60
Cc1ccc2c(c1)CCCN2C(=O)c1sc2ccccc2c1Cl
80
CC1CCN(CC(=O)Nc2ccc(Cl)cc2C(=O)c2ccccc2Cl)CC1
70

Pending molecule:
INPUT: Data request, read-out inhibition, for CC(C)(C)c1ccc(N2C(=N)SCC2=O)cc1
OUTPUT: 40

----------
Recorded inhibition by entry
measured.on: Transient receptor potential cation channel subfamily M member 7 (Mus musculus) (UniProt Q923J1)
test: Inhibition of Tet-induced Flag-tagged mouse TRPM7 expressed in HEK293 cells assessed as inhibition of channel-mediated cell death in presence of Mg2+ incubated for 24 to 48 hrs by propidium iodide uptake assay
Format: cell-based
Parameters: concentration or dose not given beside the values
measurement.conditions: concentration not given here

Example compounds with recorded inhibition:
CCCCc1ccc(NC(=O)CSc2nc(-c3ccccc3)c(-c3ccccc3)o2)c(C)c1
< 30%
N#Cc1ccc(NC(=O)Nc2ccc(OCc3ccccc3)cc2)cc1
80%
O=C(O)C1Cc2ccccc2CN1 (stereo unspecified)
< 30%
O=C(CSc1nccc(-c2cc(-c3ccc(Cl)cc3Cl)no2)n1)Nc1ccc(Cl)cc1
30%
Cc1ccc(-c2n[nH]cc2Sc2ccc(C(F)(F)F)cn2)cc1
< 30%

Pending compound:
INPUT: Data request, read-out inhibition, for Cc1cc(O)nc2c1c(-c1ccccc1)nn2C
OUTPUT: < 30%

----------
measured.on: Transient receptor potential cation channel subfamily M member 7 (Mus musculus)
test: Inhibition of Tet-induced Flag-tagged mouse TRPM7 expressed in HEK293 cells assessed as inhibition of channel-mediated cell death in presence of Mg2+ incubated for 24 to 48 hrs by propidium iodide uptake assay
Format: cell-based
Design: concentration or dose not given beside the values
measurement.conditions: concentration not given here
property.name: inhibition (%)
Form entry: value (%) — number only.

Cc1csc(NC(=O)C(F)(F)F)c1C(N)=O
50
O=C(Nc1ccc(Cl)cc1)OCc1noc(-c2cccs2)n1
70

INPUT: Data request, read-out inhibition, for CCCC1c2ccsc2CCN1C(=S)Nc1ccc(Cl)cc1Cl (stereo unspecified)
OUTPUT: 40

----------
measured.on: Transient receptor potential cation channel subfamily M member 7 (Mus musculus) (UniProt Q923J1)
test: Inhibition of Tet-induced Flag-tagged mouse TRPM7 expressed in HEK293 cells assessed as inhibition of channel-mediated cell death in presence of Mg2+ incubated for 24 to 48 hrs by propidium iodide uptake assay
Assay type: cell-based
Parameters: concentration or dose not given beside the values
measurement.conditions: concentration not given here
Recorded inhibition by entry
Form entry: value (%) — number only.

Cc1onc(-c2ccccc2Cl)c1C(=O)Nc1cccc2cccnc12
60
Brc1ccc2nc(C34CC5CC(CC(C5)C3)C4)cn2c1
60

INPUT: Data request, read-out inhibition, for O=c1oc2cc(O)ccc2c(O)c1Cc1ccc(Cl)c(Cl)c1
OUTPUT: 80

INPUT: Another compound to check: COC(=O)C(O)(c1ccc(NC(=O)Nc2ccc(Cl)cc2)cc1)C(F)(F)F (stereo not given)
OUTPUT: 50

INPUT: Another compound to check: CCOC(=O)C(=CNNC(=O)c1cccs1)C(=O)OCC
OUTPUT: 60

INPUT: Another compound to check: COc1ccccc1N1CCN(Cc2c[nH]nc2-c2ccccc2)CC1
OUTPUT: 80

INPUT: Another compound to check: Cc1ccc([N+](=O)[O-])c(C(=O)NNC(=S)Nc2cccc(Cl)c2)c1
OUTPUT: 60

----------
measured.on: Transient receptor potential cation channel subfamily M member 7 (Mus musculus) (UniProt Q923J1)
test: Inhibition of Tet-induced Flag-tagged mouse TRPM7 expressed in HEK293 cells assessed as inhibition of channel-mediated cell death in presence of Mg2+ incubated for 24 to 48 hrs by propidium iodide uptake assay
Format: cell-based
Design: concentration or dose not given beside the values
Active and inactive are the calls of the source. No cut-off for these calls is given here.
property.name: inhibition

COc1cc2c(cc1OC)C(c1sc3ccccc3c1Cl)=NCC2
Active
COc1cccc(OC)c1OCCNCC1CSc2ccccc2O1 (stereo not given)
Dose-dependent effect
C[C@H]1O[C@@H](O[C@H]2[C@@H](O)C[C@H](O[C@H]3[C@@H](O)C[C@H](O[C@H]4CC[C@@]5(C)[C@H](CC[C@@H]6[C@@H]5C[C@@H](O)[C@]5(C)[C@@H](C7=CC(=O)OC7)CC[C@]65O)C4)O[C@@H]3C)O[C@@H]2C)C[C@H](O)[C@@H]1O
Dose-dependent effect
C=C(C)[C@@H]1CC[C@]2(C(=O)O)CC[C@]3(C)[C@H](CC[C@@H]4[C@@]5(C)CC[C@H](O)C(C)(C)[C@@H]5CC[C@]43C)[C@@H]12
Dose-dependent effect
COc1cc(/C=C/C(=O)N2CCC=CC2=O)cc(OC)c1OC
Dose-dependent effect

INPUT: Data request, read-out inhibition, for COc1ccc(C[C@H]2NC[C@H](O)[C@H]2OC(C)=O)cc1
OUTPUT: Dose-dependent effect

INPUT: Another compound to check: Cc1cc(C2CCCCC2)n(O)c(=O)c1
OUTPUT: Active

INPUT: Another compound to check: COc1cc2c(cc1OC)-c1c/c(=N\c3c(C)cc(C)cc3C)n(C)c(=O)n1CC2
OUTPUT: Dose-dependent effect

INPUT: Another compound to check: COc1cccc2c1C(=O)c1c(O)c3c(c(O)c1C2=O)C[C@@](O)(C(C)=O)C[C@@H]3O[C@H]1C[C@H](N)[C@H](O)[C@H](C)O1
OUTPUT: Dose-dependent effect

INPUT: Another compound to check: O=C1C(c2ccccc2)=C(O)C2C=CC=C3c4ccccc4N1C32 (stereo not given)
OUTPUT: Active
